The reader will find reported self-cleavage values listed item by item below.
B1: CPEB3 Ribozyme (parent)
chain: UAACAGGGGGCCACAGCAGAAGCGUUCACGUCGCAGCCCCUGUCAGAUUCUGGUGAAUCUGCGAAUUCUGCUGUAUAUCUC

Variants of: B1
Test: self-cleavage, relative activity (ratio to wild type); higher = more cleavage; in vitro, sequencing
Reply: number alone, nothing else.

Reference set (8 entries):
# mutantDesignation, recordedResult
rows = [
    ("U60G A77U", 0.38),
    ("A47U U67C", 0.3),
    ("U41C U80C", 1.04),
    ("A21U A47U", 0.1),
    ("A45G U54G", 0.56),
    ("G6A A77U", 0.34),
    ("U41G U80A", 0.26),
    ("U48C G55A", 0.32),
]

(Q) Field request: self-cleavage | item: U26C G33U
(A) 0.24

(Q) Lookup U26A U51C
(A) 0.84

(Q) Now try U41A G55C .
(A) 0.34

(Q) Proceed to U25A U31A
(A) 0.16

(Q) Here is the next variant: C23U U43A
(A) 0.34

(Q) Again, but for A18U A57G
(A) 0.37

(Q) Param item: A5C G8C
(A) 0.36

(Q) Follow-up item: C11U A77G
(A) 0.41
